Hello, the source for this data is paper PMC6095626, in case you need it.

Assay: Cytotoxicity against HepG2 cells, AlamarBlue viability assay, 48 hours
Type: cell-based, human
Settings: human, HepG2 cells, read-out: HepG2 CC50 (this study)
REPORTED PROPERTY: CC50 at 48 h (µM)
Reply with just the number (in µM).

CC(C)/N=c1\cc2n(-c3ccc(Cl)cc3)c3ccccc3nc-2cc1Nc1ccc(Cl)cc1 [MMV687800, Clofazimine, reference compound]	26.4

Entry CC(=O)Oc1ccccc1C(=O)Nc1ncc([N+](=O)[O-])s1 [MMV688991, Nitazoxanide, reference compound] has what CC50 at 48 h? 10.7

====

System: G. lamblia trophozoites (luciferase expressing, WBC6)
Experiment: microbe, parasite or virus in culture
Format: cell-based, Giardia lamblia
Conditions: initial Pathogen Box screen, single concentration 16 µM, inhibition compared to DMSO wells
REPORTED PROPERTY: Giardia (16 uM) Mean % inhibition (%)
Reply with just the number (in %).

# annotated cases, reported Giardia (16 uM) Mean % inhibition shown
O=C(N[C@H](Cc1ccccc1)C(=O)Nc1ccccc1N1CCOCC1)c1cccs1 [MMV688845]	25
Cc1[nH]c2cc(F)cc(F)c2c(=O)c1-c1ccc(Oc2ccc(OC(F)(F)F)cc2)cc1 [MMV671636]	18
C[C@H](C(N)=O)N1CCCC[C@H]1c1ccc(OCc2cccc(F)c2)cc1 [MMV676269]	69
O=[N+]([O-])c1cn2c(n1)OC[C@@H](OCc1ccc(OC(F)(F)F)cc1)C2 [MMV688755]	99

Entry Cc1cc(OCC(=O)Nc2ccc(C(C)C)cc2)n(C)c(=O)c1C#N [MMV1198433] has what Giardia (16 uM) Mean % inhibition? 10

Note, next up: Cc1ncc(-c2ccnc(Nc3ccc(S(C)(=O)=O)cc3)n2)n1C(C)C [MMV676604] 92

Note, next up: NS(=O)(=O)c1cccc(-c2ccc3ncc(N4CCOCC4)nc3c2)c1 [MMV023860] 27

Note, next up: Cc1ccc2nc(Cl)c(CNCc3cccs3)cc2c1 [MMV676439] 70

Note, next up: CCC(Sc1nc2ccccc2o1)C(=O)Nc1nnc(C)s1 (stereo not drawn) [MMV611037] 46

====

Tested on: G. lamblia trophozoites (luciferase expressing, WBC6)
Experiment: microbe, parasite or virus in culture
Type: cell-based, Giardia lamblia
Conditions: initial Pathogen Box screen, single concentration 16 µM, inhibition compared to DMSO wells
Method: Trophozoites were harvested by chilling cultures on ice for 30 minutes and plated by adding 150 μL per well at a concentration of 250,000 cells/mL. Metronidazole (Sigma, St. Louis, MO) was used as a control and was serially diluted 1:2 from 40 μM to 0.04 μM and 150 μL was added to the 150 μL of the G. lamblia trophozoites. Plates were covered in plastic low-evaporation lids, sealed in individual anaerobic BD GasPak Bio-Bags (Becton Dickinson, San Jose, CA) and incubated at 37 °C for 24 hours. […]
REPORTED PROPERTY: Giardia (16 uM) Mean % inhibition (%)
Reply with just the number (in %).

# annotated cases, reported Giardia (16 uM) Mean % inhibition shown
Clc1cccc(CO[C@H]2CCc3ccccc3[C@@H]2n2ccnn2)c1	30
COc1ccc(-c2nc(-c3cccc(NC(=O)Cc4ccc(F)cc4)c3)no2)cc1OC	6
CCN(CC)CCCN1CCN(C(=O)c2cccc(-c3noc(C(F)(F)F)n3)c2)CC1	8
CN1CCN(c2nccc3nc(-c4ccc(F)c(F)c4)[nH]c23)CC1	29

Entry C[C@@H]1[C@H](O)[C@@H](C)/C=C/C=C/C=C/C=C/C=C/C=C/C=C/[C@H](O[C@@H]2O[C@H](C)[C@@H](O)[C@H](N)[C@@H]2O)C[C@@H]2O[C@](O)(C[C@@H](O)C[C@@H](O)[C@H](O)CC[C@@H](O)C[C@@H](O)CC(=O)O[C@H]1C)C[C@H](O)[C@H]2C(=O)O has what Giardia (16 uM) Mean % inhibition? 41

Note, next up: Cc1ccc(NC(=O)c2nc[nH]c2C(=O)Nc2nc3ccccc3[nH]2)c(C)c1 21

====

Test system: G. lamblia trophozoites (luciferase expressing, WBC6)
Assay: microbe, parasite or virus in culture
Assay type: cell-based, Giardia lamblia
Conditions: initial Pathogen Box screen, single concentration 16 µM, inhibition compared to DMSO wells
Binary call on Giardia (16 uM) Mean % inhibition: TRUE from 30% upward, FALSE beneath that.

// below: answered molecules
Cn1c(=O)c2c(S(C)(=O)=O)snc2n(C)c1=O	FALSE
COc1cc(C2=NCCN2)ccc1-n1cc(-c2cccc(C3=NCCN3)c2)nn1	FALSE
NS(=O)(=O)c1cncc(-c2ccc3nccc(-c4cn[nH]c4)c3n2)c1	FALSE

Can Cc1nn(C)c(C)c1NS(=O)(=O)c1c(Cl)cc(-c2ccnc(N3CCNCC3)c2)cc1Cl be said to have Giardia (16 uM) Mean % inhibition at or above 30%? FALSE

Note, next up: Cn1ncc2c(N3CCOCC3)nc(NCCc3c[nH]c4ccccc34)nc21 TRUE

Note, next up: CC1=NN(c2nc3ccccc3s2)C(=O)C1Cc1cccc2ccccc12 (stereo not shown) TRUE

====

System: G. lamblia trophozoites (luciferase expressing, WBC6)
Assay: microbe, parasite or virus in culture
Type: cell-based, Giardia lamblia
Conditions: initial Pathogen Box screen, single concentration 16 µM, inhibition compared to DMSO wells
Binary call on Giardia (16 uM) Mean % inhibition: true (1) from 20% upward, false (0) beneath that.

// below: answered compounds
CC(Oc1cccc(Cl)c1)C(=O)Nc1ccc2oc(-c3ccncc3)nc2c1 (stereo not shown) [MMV688472]	true (1)
NC(CC(=O)c1ccc(Cl)cc1Cl)C(Cl)(Cl)Cl (stereo not shown) [MMV676468]	true (1)
Cc1cc2ccccc2n1CC(=O)N1CC(C(=O)N2CCCCC2)Oc2ccccc21 (stereo not shown) [MMV020520]	false (0)
COc1cccc(NC(=O)c2c(NC(=O)c3cccnc3)sc3c2CCC3)c1 [MMV228911]	true (1)
COCC(C)NC(=O)CSc1ncnc2sc(-c3ccccc3)cc12 (stereo not shown) [MMV676536]	false (0)
COc1ccc(-c2onc(C(F)(F)F)c2-c2ccc(Cl)cc2)c(O)c1 [MMV688766]	true (1)
CNCC[C@H](Oc1ccc(C(F)(F)F)cc1)c1ccccc1 [MMV001561]	false (0)
Nc1ccc(C(=O)Nc2ccc(-c3nc4ccccc4o3)cc2)cc1 [MMV007920]	true (1)
COc1ccc(OC(C)C(=O)Nc2ccc(Cl)cc2C)cc1 (stereo not shown) [MMV202458]	false (0)
O=C(NCc1cc(Cl)cc(Cl)c1)c1c(C(F)(F)F)nc2ccccn12 [MMV687699]	false (0)

Attention now turns to another entry.
Can COC(=O)c1c(NC(=O)c2c(F)c(F)c(F)c(F)c2F)sc2c1CCCCC2 [MMV461553] be said to have Giardia (16 uM) Mean % inhibition at or above 20%? true (1)

====

System: G. lamblia trophozoites (luciferase expressing, WBC6)
Assay: microbe, parasite or virus in culture
Format: cell-based, Giardia lamblia
Settings: initial Pathogen Box screen, single concentration 16 µM, inhibition compared to DMSO wells
REPORTED PROPERTY: Giardia (16 uM) Mean % inhibition (%)
Reply with just the number (in %).

# annotated cases, reported Giardia (16 uM) Mean % inhibition shown
Cc1nc(-c2cccc(NCc3ccccc3)c2)[nH]c1C	58
Cc1nc(-c2ccccn2)nc(NCCc2ccc(S(C)(=O)=O)cc2)c1Cl	11
CNc1cc(C)nc(C2CN(C(=O)c3n[nH]c4ccccc34)CCO2)c1 (stereo not shown)	19
COc1ccc(Nc2ccccc2NC(=O)c2ccc(=O)[nH]c2)cc1	21
CN(C)c1cc(NC(=O)Nc2ccccc2)c2ccccc2n1	49

Entry CC(C(=O)Nc1ccc2oc(-c3ccncc3)nc2c1)c1ccccc1 (stereo not shown) has what Giardia (16 uM) Mean % inhibition? 19

Note, next up: CN1CCC(NCc2cccc(-c3ccc(S(=O)(=O)NCc4ccccc4)cc3)c2)CC1 89

Note, next up: CCC(=O)Nc1ccccc1C(=O)Nc1ccccn1 35

Note, next up: CS(=O)(=O)Cc1nc2ccccc2oc1=O 12

Note, next up: COc1cc(-c2cc(-c3ccc(S(C)(=O)=O)cc3)cnc2N)ccc1O 94

Note, next up: CS(=O)(=O)c1ccc(C(=O)N(CC2CCCO2)c2nc3ccccc3s2)cc1[N+](=O)[O-] (stereo not shown) 63

====

G. lamblia inhibition of parasite growth in the initial screen for assorted molecules
Test system: G. lamblia trophozoites (luciferase expressing, WBC6)
Test: microbe, parasite or virus in culture
Type: cell-based, Giardia lamblia
Settings: 16 μM, 24 hours
Procedure: Trophozoites were harvested by chilling cultures on ice for 30 minutes and plated by adding 150 μL per well at a concentration of 250,000 cells/mL. Metronidazole (Sigma, St. Louis, MO) was used as a control and was serially diluted 1:2 from 40 μM to 0.04 μM and 150 μL was added to the 150 μL of the G. lamblia trophozoites. Plates were covered in plastic low-evaporation lids, sealed in individual anaerobic BD GasPak Bio-Bags (Becton Dickinson, San Jose, CA) and incubated at 37 °C for 24 hours. […]

# annotated cases, reported G. lamblia inhibition of parasite growth in the initial screen shown
CN1CCN(S(=O)(=O)c2ccc(-c3ccc4c(Nc5ncc(Cl)cn5)ccnc4c3)cc2)CC1	≥ 95%
CCOC(=O)c1c(NC(=O)c2c(F)c(F)c(F)c(F)c2F)sc(C(N)=O)c1C	≥ 95%

Turning now to a further record.
G. lamblia trophozoites (luciferase expressing, WBC6) / G. lamblia inhibition of parasite growth in the initial screen / COc1ccc(OC)c(NCc2ccc3nc(N)nc(N)c3c2Cl)c1 : value? 90%
